- Tested on: mAb 9C12
- Assay Explanation: Epitope mapping of monoclonal antibody 9C12 against cyclic peptides of the AdV hexon protein (peptide microarray)
- Assay type: binding, mice
- Test Parameters: cyclic 7mer, 10mer, 13mer peptides of AdV hexon
For each record, check the reported ranked binding signal obtained from the microarray (01 binds strongest): if it is below 10 write yes (1), else write no (0).

Solved cases (3 shown):
[
  {
    "Sequence Content": "EEIRTTNPVATEQY (REGION 1..14: note = peptide derived from viral capsid protein) [SEQ ID NO: 1980]",
    "Label Class": "no (0)"
  },
  {
    "Sequence Content": "TIANNLTSTIQVFT (REGION 1..14: note = peptide derived from viral capsid protein) [SEQ ID NO: 1968]",
    "Label Class": "yes (1)"
  },
  {
    "Sequence Content": "GADGVGNSSGNWHC (REGION 1..14: note = peptide derived from viral capsid protein) [SEQ ID NO: 1982]",
    "Label Class": "no (0)"
  }
]

Here is the next item to consider.
Query: Is 10 strictly greater than the sequence's reported ranked binding signal obtained from the microarray (01 binds strongest)? sequence: LSRTQSTGGTQGTQ [SEQ ID NO: 1973]
Response: yes (1)

* * *

Give antibody binding signal ranking from the microarray experiment for every item shown.
- Test system: polyclonal antibody ab6982
- Assay Explanation: Epitope mapping of polyclonal antibody ab6982 against cyclic peptides of Ad5 fiber and hexon (peptide array)
- Type: binding, rabbits
- Test Parameters: cyclic peptides of fiber protein (clusters 1-7)

[
  {
    "Substance": "KRLNFEEDTGAGDG [SEQ ID NO: 2053]",
    "Result": "022"
  }
]

# return antibody binding signal ranking from the microarray experiment for each item in the list
1. TVQIFADSSYELPY (REGION 1..14: note = peptide derived from viral capsid protein) [SEQ ID NO: 2043]
2. APGKKRPVEHSPVE (REGION 1..14: note = peptide derived from viral capsid protein) [SEQ ID NO: 1999]
3. NLQAANLALGETTR [SEQ ID NO: 2020]
4. HSQSLDRMMNPLLD [SEQ ID NO: 2033]

Response:
[136, "061", "016", "062"]

* * *

- Tested on: polyclonal antibody ab6982
- Assay Explanation: Epitope mapping of polyclonal antibody ab6982 against cyclic peptides of Ad5 fiber and hexon (peptide array)
- Assay type: binding, rabbits
- Test Parameters: cyclic peptides of fiber protein (clusters 1-7)
- Description: Polyclonal antibody ab6982 (Abcam) was generated by immunizing rabbits with purified AdV. It reacts with all capsid proteins of Ad5 including hexon, fiber and penton. It was shown that the antibody neutralizes Ad5 infection in a bioassay at 1000 adenovirus 5 particles/ml, a 50% inactivation of the adenovirus can be achieved at a 1/25,000 dilution of the antibody. […]
Using antibody binding signal ranking from the microarray experiment as the sorting value, the categories are low interval: < 50; middle interval: ≥ 50 and < 100; high interval: ≥ 100

[
  {
    "Substance": "188 (EYWNFRN) [compound 188]",
    "Label Class": "high interval"
  },
  {
    "Substance": "MATNNQSLALGETT [SEQ ID NO: 2022]",
    "Label Class": "low interval"
  },
  {
    "Substance": "QIFADSSYELPYVM [SEQ ID NO: 2041]",
    "Label Class": "high interval"
  },
  {
    "Substance": "202 (IFATSSY) [compound 202]",
    "Label Class": "high interval"
  }
]

Here is the next item to consider.
Query: State the band of GGQMATNNQSLALG [SEQ ID NO: 2021]
Response: low interval

* * *

Give antibody binding signal ranking from the microarray experiment for every item shown.
- Test system: polyclonal antibody ab6982
- Assay Explanation: Epitope mapping of polyclonal antibody ab6982 against cyclic peptides of Ad5 fiber and hexon (peptide array)
- Format: binding, rabbits
- Test Parameters: cyclic peptides of hexon protein (clusters 8-16)
Answers are plain numbers.

// known answers, use as guide
[
  {
    "Substance": "216 (TALEINLEEE) [compound 216]",
    "Quantitative Readout": "09"
  },
  {
    "Substance": "221 (ATALEINLEE) [compound 221]",
    "Quantitative Readout": 19
  },
  {
    "Substance": "307 (MLANYNIGYQGFY) [compound 307]",
    "Quantitative Readout": 123
  },
  {
    "Substance": "243 (EDDDNED) [compound 243]",
    "Quantitative Readout": "063"
  },
  {
    "Substance": "244 (NLEEEDD) [compound 244]",
    "Quantitative Readout": "065"
  },
  {
    "Substance": "245 (DDNEDEV) [compound 245]",
    "Quantitative Readout": "078"
  },
  {
    "Substance": "286 (ETPDTHISYM) [compound 286]",
    "Quantitative Readout": "071"
  },
  {
    "Substance": "241 (LEEEDDDNEDEVD) [compound 241]",
    "Quantitative Readout": "053"
  },
  {
    "Substance": "249 (EEDDDNE) [compound 249]",
    "Quantitative Readout": 108
  },
  {
    "Substance": "270 (VLYSEDVDIE) [compound 270]",
    "Quantitative Readout": "047"
  }
]

# return antibody binding signal ranking from the microarray experiment for each item in the list
1. 254 (EEEDDDNEDEVDE) [compound 254]
2. 287 (IETPDTHISYMP) [compound 287]
3. 261 (WDEAATALEINLE) [compound 261]

Response:
1: 188; 2: 159; 3: 042

* * *

- System: IgG from human donors (anti-AAV antibodies)
- Assay Explanation: Screen for anti-AAV antibodies in human sera based on cyclic 14-amino-acid AAV peptides on microarrays (Table 2)
- Assay type: binding
- Parameters: key: X: the deduplicated aggregate of the respective top 50 peptide hits for each donor was compiled and designated as group I
- Test Parameters: human donor IgG; circularized AAV peptides; top 50 peptide hits for each donor
Experimental Endpoint: group I

[
  {
    "Substance": "1933 (DKDKFFPMSGVMIF; REGION 1..14: note = peptide derived from viral capsid protein) [compound 1933]",
    "group I": "X"
  },
  {
    "Substance": "1898 (LEDNLSEGIREWWD; REGION 1..14: note = peptide derived from viral capsid protein) [compound 1898]",
    "group I": "X"
  },
  {
    "Substance": "1903 (NYNKSVNVDFTVDT; REGION 1..14: note = peptide derived from viral capsid protein) [compound 1903]",
    "group I": "X"
  },
  {
    "Substance": "1902 (DEEEIRTTNPVATE; REGION 1..14: note = peptide derived from viral capsid protein) [compound 1902]",
    "group I": "X"
  },
  {
    "Substance": "1927 (GTNTMATGSGAPMA; REGION 1..14: note = peptide derived from viral capsid protein) [compound 1927]",
    "group I": "X"
  },
  {
    "Substance": "1897 (GNTSQQQTDRNAFY; REGION 1..14: note = peptide derived from viral capsid protein) [compound 1897]",
    "group I": "X"
  }
]

# return group I for each item in the list
1. 1912 (PQILIKNTPVPADP; REGION 1..14: note = peptide derived from viral capsid protein) [compound 1912]
2. 1923 (TAPGKKRPVDQSPQ; REGION 1..14: note = peptide derived from viral capsid protein) [compound 1923]
3. 1935 (EEEIKTTNPVATEE; REGION 1..14: note = peptide derived from viral capsid protein) [compound 1935]
4. 1910 (FNIQVKEVTTNDGV; REGION 1..14: note = peptide derived from viral capsid protein) [compound 1910]
5. 1918 (APGKKRPVDQSPQE; REGION 1..14: note = peptide derived from viral capsid protein) [compound 1918]
6. 1913 (QLKAGDNPYLRYNH; REGION 1..14: note = peptide derived from viral capsid protein) [compound 1913]

Response:
["X", "X", "X", "X", "X", "X"]

# return group I for each item in the list
1. 1901 (PQYGYLTLNNGSQA; REGION 1..14: note = peptide derived from viral capsid protein) [compound 1901]
2. 1900 (LIKNTPVPADPPTT; REGION 1..14: note = peptide derived from viral capsid protein) [compound 1900]
3. 1919 (GKKRPVDQSPQEPD; REGION 1..14: note = peptide derived from viral capsid protein) [compound 1919]
4. 1899 (SESVPDPQPIGEPP; REGION 1..14: note = peptide derived from viral capsid protein) [compound 1899]
5. 1926 (DKAYDRQLDSGDNP; REGION 1..14: note = peptide derived from viral capsid protein) [compound 1926]
6. 1928 (DKAYDQQLQAGDNP; REGION 1..14: note = peptide derived from viral capsid protein) [compound 1928]
7. 1914 (SFITQYSTGQVSVE; REGION 1..14: note = peptide derived from viral capsid protein) [compound 1914]
8. 1937 (DDEDKFFPMSGVMI; REGION 1..14: note = peptide derived from viral capsid protein) [compound 1937]

Response:
["X", "X", "X", "X", "X", "X", "X", "X"]

# return group I for each item in the list
1. 1924 (YDQQLKAGDNPYLK; REGION 1..14: note = peptide derived from viral capsid protein) [compound 1924]
2. 1907 (IFNIQVKEVTTSNG; REGION 1..14: note = peptide derived from viral capsid protein) [compound 1907]
3. 1895 (ANNLTSTVQIFADS; REGION 1..14: note = peptide derived from viral capsid protein) [compound 1895]
4. 1929 (TESVPDPQPIGEPP; REGION 1..14: note = peptide derived from viral capsid protein) [compound 1929]

Response:
1. X
2. X
3. X
4. X
